Reference source: PubChem BioAssay (NCI)

TGI: recorded values
Tested on: HCC-2998 colon
protocol.text: NCI tumour cell line growth inhibition, 48 h

Some entries whose results are on file:
>  <molecule>
CCCCCCCCCCCCCCCc1nc(=S)[nH][nH]1

>  <TGI>
> 100 µM

$$$$
>  <molecule>
O=[N+]([O-])/C(Cl)=C(/C(Cl)=C(Cl)Cl)N1CCOCC1

>  <TGI>
7.52 µM

$$$$
>  <molecule>
CC(O)[C@H](NC(=O)N[C@@H](CC(N)=O)c1nc(N2CCNCC2)no1)C(=O)O (stereo partly drawn)

>  <TGI>
> 100 µM

$$$$
>  <molecule>
CCOC(=O)/C(=C\c1ccc2ccccc2c1)P(=O)(OCC)OCC

>  <TGI>
3.43 µM

$$$$
>  <molecule>
CN(N=O)c1nc2c(C(N)=O)ncn2s1

>  <TGI>
> 100 µM

$$$$

`O=C1NC2(CCNCC2)Oc2ccccc21` yielded TGI of > 100 µM

`C#C[C@]1(O)CC[C@H]2[C@@H]3CC=C4c5nc(N)sc5CC[C@]4(C)[C@H]3CC[C@@]21C` yielded TGI of 19.2 µM

`COc1ccc(/C=N/NS(=O)(=O)c2ccccc2)cc1` yielded TGI of > 100 µM

`O=c1oc2c3ccc4ccccc4c3n(CCN3CCCCC3)c2c2ccccc12` yielded TGI of > 100 µM

CCCCC1(C(NC(=O)c2ccccc2Cl)c2ccncc2)C(=O)N(c2ccccc2)N(c2ccccc2)C1=O (stereo not drawn) yielded TGI of > 100 µM

COC(=O)/C=C(\C)CCC1SC1(C)C (stereo not drawn) yielded TGI of > 100 µM

`COc1ccc(Br)c(C(=O)N2CCc3ccccc32)c1N` yielded TGI of > 100 µM

`CC1(C)OC[C@@H]([C@@]2(COC(c3ccccc3)(c3ccccc3)c3ccccc3)CC=CC(=O)O2)O1` yielded TGI of 41 µM

CC1OC(OC2C(O)C(O)C(O)C(O)C2O)C(N)CC1N=C(N)C(=O)O (stereo not drawn) yielded TGI of > 100 µM

`Oc1ccccc1C=Nc1ccc(-c2nc3ccccc3s2)cc1` yielded TGI of 45.4 µM

COc1ccc(C2Cc3cc(OC)c(OC)c(OC)c3C2)cc1 (stereo not drawn) yielded TGI of > 100 µM
